target: C1b domain of human PKCα (Homo sapiens); construct: Genes encoding C1b domains of human PKCα, δ, ε, θ, and PKD1 (PKCμ) were synthesized; made in house; host or cells: E. coli BL21(DE3); test: biochemical; assay type: binding; conditions: Ki PKCα, 3H-PDBu competition
pKi: −log10 of the molar value.
metric_name: pKi

So for `CC1=C[C@H]2[C@@]3(O)[C@H](C)C[C@]4(OC(=O)[C@@H](N)CCCCCCc5ccccc5)[C@H]([C@@H]3C=C(CO)C[C@]2(O)C1=O)C4(C)C` , the logged pKi turned out to be 7.22 to 7.52

Entry under test: `CC1=C[C@H]2[C@@]3(O)[C@H](C)C[C@]4(OC(=O)[C@@H](N)CCCCCCCCc5ccccc5)[C@H]([C@@H]3C=C(CO)C[C@]2(O)C1=O)C4(C)C` . Its pKi was 7.22 to 7.52

Reported pKi of `CC1=C[C@H]2[C@@]3(O)[C@H](C)C[C@]4(OC(=O)[C@H](N)CCCCCCc5ccccc5)[C@H]([C@@H]3C=C(CO)C[C@]2(O)C1=O)C4(C)C` : 6.10 to 6.40

The molecule listed as `CC1=C[C@H]2[C@@]3(O)[C@H](C)C[C@]4(OC(=O)[C@@H](N)C(C)(C)C)[C@H]([C@@H]3C=C(CO)C[C@]2(O)C1=O)C4(C)C` has a reported pKi of 6.40 to 6.70

For record `CC1=C[C@H]2[C@@]3(O)[C@H](C)C[C@]4(OC(=O)CCc5scnc5C)[C@H]([C@@H]3C=C(CO)C[C@]2(O)C1=O)C4(C)C` the listed pKi is 5.40 to 5.70

---

target: C1b domain of human PKCα (Homo sapiens); construct: Genes encoding C1b domains of human PKCα, δ, ε, θ, and PKD1 (PKCμ) were synthesized; made in house; host or cells: E. coli BL21(DE3); assay: biochemical; type: binding; details: Ki PKCα, 3H-PDBu competition
pKi: −log10 of the molar value.
metric_name: pKi

Looking up `CC1=C[C@H]2[C@@]3(O)[C@H](C)C[C@]4(OC(=O)C[C@H](N)Cc5ccccc5)[C@H]([C@@H]3C=C(CO)C[C@]2(O)C1=O)C4(C)C` , I found its pKi recorded as 6.40 to 6.70

Record `CC1=C[C@H]2[C@@]3(O)[C@H](C)C[C@]4(OC(=O)[C@H](N)CCc5ccc(C(F)(F)F)cc5)[C@H]([C@@H]3C=C(CO)C[C@]2(O)C1=O)C4(C)C` . Reported pKi: 5.70 to 6.00

`CC1=C[C@H]2[C@@]3(O)[C@H](C)C[C@]4(OC(=O)[C@H](N)CCCCCCc5ccc(C(F)(F)F)cc5)[C@H]([C@@H]3C=C(CO)C[C@]2(O)C1=O)C4(C)C` has a reported pKi of 5.70 to 6.00

The reported pKi of the molecule `CC1=C[C@H]2[C@@]3(O)[C@H](C)C[C@]4(OC(=O)CCc5c[nH]c6ncccc56)[C@H]([C@@H]3C=C(CO)C[C@]2(O)C1=O)C4(C)C` was 6.00 to 6.10

Field pKi (entry `CC1=C[C@H]2[C@@]3(O)[C@H](C)C[C@]4(OC(=O)[C@H](N)CCCCCCCCc5ccccc5)[C@H]([C@@H]3C=C(CO)C[C@]2(O)C1=O)C4(C)C` ) reads 6.10 to 6.40

Just so you know, measured pKi for CC1=C[C@H]2[C@@]3(O)[C@H](C)C[C@]4(OC(=O)[C@@H](N)CCc5ccccc5)[C@H]([C@@H]3C=C(CO)C[C@]2(O)C1=O)C4(C)C [Compound K101-C1318] came out at 6.70 to 7.00

Data point: `CC1=C[C@H]2[C@@]3(O)[C@H](C)C[C@]4(OC(=O)[C@@H](N)C(C)(C)c5ccc(C(F)(F)F)cc5)[C@H]([C@@H]3C=C(CO)C[C@]2(O)C1=O)C4(C)C` ; pKi = 7.22 to 7.52

Measured pKi of `CCCC[C@H](N)C(=O)O[C@@]12C[C@@H](C)[C@@]3(O)[C@@H](C=C(CO)C[C@]4(O)C(=O)C(C)=C[C@@H]34)[C@@H]1C2(C)C` : 6.00 to 6.10

Short answer for `CC1=C[C@H]2[C@@]3(O)[C@H](C)C[C@]4(OC(=O)[C@H](N)CCCc5ccccc5)[C@H]([C@@H]3C=C(CO)C[C@]2(O)C1=O)C4(C)C` : pKi was 5.70 to 6.00

Documented pKi of `CC1=C[C@H]2[C@@]3(O)[C@H](C)C[C@]4(OC(=O)/C=C/c5ccc(C(F)(F)F)cc5)[C@H]([C@@H]3C=C(CO)C[C@]2(O)C1=O)C4(C)C` : 6.40 to 6.70

The recorded pKi for `CC1=C[C@H]2[C@@]3(O)[C@H](C)C[C@]4(OC(=O)[C@H](CC5CCCCC5)N(C)C)[C@H]([C@@H]3C=C(CO)C[C@]2(O)C1=O)C4(C)C` is 5.22 to 5.40

# pKi of CC1=C[C@H]2[C@@]3(O)[C@H](C)C[C@]4(OC(=O)C(Cc5ccccc5)C(=O)O)[C@H]([C@@H]3C=C(CO)C[C@]2(O)C1=O)C4(C)C (stereo partly drawn) = < 5.10
